assay: yeast display, Sf9 membrane polyspecificity reagent, FACS + sequencing; frameworks hold sequencing errors
measurement.name: polyreactivity (PSR sort gate)

# annotated cases, reported polyreactivity (PSR sort gate) shown
{"primary.sequence": "PVQLQESGGGLVQAGGSLRLSCAARGNIFDADIMGWYSQAPGKERELVACIADGGSTNYAHSVKGRFTISRDNAKNTVYLHMNSVKPEDTAVYYCAAIAYPDIPTCFDYYSDYFFRGQGTQVTVSS", "polyreactivity (PSR sort gate)": "low polyreactivity"}
{"primary.sequence": "QVQLVESRGGLVQAGGSLRLSFGASGRTFRWYAMVWYRQAPGKERELVAAITYSVGSTYYADSVKGRFTISRDNAKNTVYLQMNSLKPEDSAVYSCAADSYPYRYRGKYSRLDYWGQGTQVTVSS", "polyreactivity (PSR sort gate)": "low polyreactivity"}
{"primary.sequence": "QVHLVESGGGLVQAGGSLRLSCAASGRTFATNTMGWYRQAPGKEREFVAAISRGGVSTSYADSVKGRFTISRDNAKNTVYLQMNSLKPEDTAVYYCAAKHYGFNRNHRHSYDYWGQGTQVTVSS", "polyreactivity (PSR sort gate)": "high polyreactivity"}
{"primary.sequence": "QVQLVESGGGLVQAGGSLRLSCAASGSIFWLYAMGCYRQAPGKERELVAGISQNGGSTTYADSVKGRFTISRDNAKNTVYFQMNSLKPEDTAVYYCAAKRYGPFKYGYWGQGTQVTVSS", "polyreactivity (PSR sort gate)": "high polyreactivity"}

--- query ---
Exam item: Consider the sequence shown here: `QVQLVESGGGLVQAGGSLRLSCAASGRIIQRYAMGWYRQAPGKERELVATITFNTASTYYADSVKGRFTISRDNAQNTVYLQMNSLKPEDTAVYYCAAKHRGGYGYWGQGTQVTVSS` What is its recorded polyreactivity (PSR sort gate)?
Marked response: high polyreactivity
